- procedure_details: Plasma pharmacokinetics of ENT-03S cyclodextrin formulation after subcutaneous injection
- Type: in vivo, rat
- test_context: male, Sprague-Dawley, rat, plasma, sc, 10 mg/kg, 20% beta-cyclodextrin formulation; 10 mg/kg SC; male SD rats; 2 h; individual rats; read-out: Concentration (ng/ml) Rat 1-3
metric_name: concentration at 2 h (ng/mL)
# value in ng/mL; strip the unit string

I have this molecule here, C[C@H](CCC[C@H](C)C(=O)O)[C@H]1CCC2C3C(CC[C@@]21C)[C@@]1(C)CC[C@H](NCCCNCCCCNCCCN)C[C@@H]1C[C@H]3O (stereo partly drawn) [ENT-03S] , and I need its recorded concentration at 2 h.
31300
